- ASSAY_OVERVIEW: Inhibition of phosphotidylcholine-preferring phospholipase C (unknown origin) at pH 7.3
- Design: species or system Homo sapiens
Entries and their Ki values follow.
Answer format: numeric, µM implied, no suffix.

Any idea what Ki was measured for `O=C1C=CCN(O)C(=O)N1O` ? 388

***
Any idea what Ki was measured for `O=c1c(O)ccccc1O` ? 16

---

- ASSAY_OVERVIEW: Inhibition of Escherichia coli ribonuclease H
QUANTITY_MEASURED: IC50

Any idea what IC50 was measured for O=c1cccccc1O [TROPOLONE] ? > 100 µM

Similarly, CC(C)c1ccccc(=O)c1O [ALPHA-THUJAPLICIN] ? > 100 µM

Please examine the following record next.
Any idea what IC50 was measured for CC(C)c1ccc(O)c(=O)c(O)c1 [BETA-THUJAPLICINOL] ? 50 µM

---

- ASSAY_OVERVIEW: Inhibition of HIV1 reverse transcriptase RNase H
- Design: species or system Human immunodeficiency virus 1
Entries and their IC50 values follow.

Some entries whose results are on file:
Any idea what IC50 was measured for `CC(C)c1ccc(O)c(=O)c(O)c1` ? 0.2 µM

Similarly, `O=c1cccccc1O` ? > 100 µM

***
Any idea what IC50 was measured for `CC(C)c1ccccc(=O)c1O` ? 50 µM

---

- ASSAY_OVERVIEW: Toxicity in mouse assessed as induction of mortality after 72 hrs
- Assay type: organism-based
- PARTICULARS: in vivo
QUANTITY_MEASURED: LD50 at 72 h (mg/kg)
Answer format: numeric, mg/kg implied, no suffix.

Any idea what LD50 at 72 h was measured for `CC(C)c1ccc(O)c(=O)c(O)c1` ? 155

---

- ASSAY_OVERVIEW: Inhibition of HIV reverse transcriptase polymerase
- Design: species or system Human immunodeficiency virus
Entries and their IC50 values follow.
Answer format: numeric, µM implied, no suffix.

Some entries whose results are on file:
Any idea what IC50 was measured for `CC(=O)Nc1ccc(-c2cc(-c3ccc(NC(C)=O)cc3)c(O)c(=O)c(O)c2O)cc1` ? 52

Similarly, `O=Cc1ccc(-c2ccc(O)c(=O)c(O)c2O)cc1` ? 0.6

Similarly, `O=c1c(O)cccc(O)c1O` ? 3.2

Similarly, `CC(=O)Oc1cccc(OC(C)=O)c(=O)c1OC(C)=O` ? 30

Please examine the following record next.
Any idea what IC50 was measured for `O=c1c(O)c(O)ccc(-c2cccc([N+](=O)[O-])c2)c1O` ? 2.3

---

Entries and their Ki values follow.
- ASSAY_OVERVIEW: Inhibition of phosphotidylcholine-preferring phospholipase C (unknown origin) at pH 9.5
- Parameters: species or system Homo sapiens
Answer format: numeric, µM implied, no suffix.

Any idea what Ki was measured for `O=C1C=CCN(O)C(=O)N1O` ? 53

***
Any idea what Ki was measured for `O=c1c(O)ccccc1O` ? 23

---

- ASSAY_OVERVIEW: Inhibition of HIV integrase strand transfer activity
- Design: species or system Human immunodeficiency virus
Entries and their pIC50 values follow.
// pIC50: -log10(molar conc.)

Some entries whose results are on file:
Any idea what pIC50 was measured for `CC(=O)Nc1ccc(-c2cc(-c3ccc(NC(C)=O)cc3)c(O)c(=O)c(O)c2O)cc1` ? 5.77

Similarly, `O=Cc1ccc(-c2ccc(O)c(=O)c(O)c2O)cc1` ? 5.92

Similarly, `O=c1c(O)c(O)ccc(-c2cccc([N+](=O)[O-])c2)c1O` ? 6.10

Please examine the following record next.
Any idea what pIC50 was measured for `O=c1c(O)cccc(O)c1O` ? 4.96

---

- Test system: Plasmodium falciparum
- ASSAY_OVERVIEW: Antimalarial activity against chloroquine-resistant Plasmodium falciparum K1
- Assay type: functional, organism-based
Entries and their pIC50 values follow.
// pIC50: -log10(molar conc.)

Some entries whose results are on file:
// fetch Plasmodium falciparum pIC50 for `O=C(O)c1cc(O)c(O)c(=O)c(O)c1` 7.30

Similarly, `O=c1c(O)ccccc1O` ? 5.19

Similarly, C[C@H]1[C@H](OC(=O)CCC(=O)O)O[C@@H]2O[C@@]3(C)CC[C@H]4[C@H](C)CC[C@@H]1[C@@]24OO3 [ARTESUNATE] ? 8.00

Please examine the following record next.
// fetch Plasmodium falciparum pIC50 for `COc1cc(C(=O)O)cc(O)c(OC)c1=O` 5.43

---

- ASSAY_OVERVIEW: Inhibition of HIV2 reverse transcriptase RNase H
- Parameters: species or system Human immunodeficiency virus 2
QUANTITY_MEASURED: IC50

Some entries whose results are on file:
Any idea what IC50 was measured for `O=c1cccccc1O` ? > 100 µM

Similarly, `CC(C)c1ccccc(=O)c1O` ? 33 µM

Please examine the following record next.
Any idea what IC50 was measured for `CC(C)c1ccc(O)c(=O)c(O)c1` ? 0.8 µM

---

- ASSAY_OVERVIEW: Inhibition of alkaline phosphatase (unknown origin)
- Design: species or system Homo sapiens
Entries and their IC50 values follow.
Answer format: numeric, µM implied, no suffix.

Any idea what IC50 was measured for `O=c1c(O)ccccc1O` ? 15

***
Any idea what IC50 was measured for `O=c1c(O)cccc(O)c1O` ? 60

---

Entries and their IC50 values follow.
- ASSAY_OVERVIEW: Inhibition of XMRV RNaseH
- Parameters: species or system Xenotropic MuLV-related virus
Answer format: numeric, nM implied, no suffix.

Any idea what IC50 was measured for CC(C)c1ccc(O)c(=O)c(O)c1 [BETA-THUJAPLICINOL] ? 1400

Similarly, `NCc1ccc(-c2ccc(Cc3cc(=O)n(O)c4ncccc34)cc2)cc1` ? 410

---

- ASSAY_OVERVIEW: Toxicity in mouse assessed as induction of mortality after 48 hrs
- Type: organism-based
- PARTICULARS: in vivo
QUANTITY_MEASURED: LD50 at 48 h
Answer format reminder: number followed by unit.

Any idea what LD50 at 48 h was measured for `CC(C)c1ccc(O)c(=O)c(O)c1` ? 175 mg/kg

---

- ASSAY_OVERVIEW: Inhibition of HIV reverse transcriptase RNase H
- Design: species or system Human immunodeficiency virus
Entries and their pIC50 values follow.
// pIC50: -log10(molar conc.)

Some entries whose results are on file:
Any idea what pIC50 was measured for `O=c1c(O)c(O)ccc(-c2cccc([N+](=O)[O-])c2)c1O` ? 5.89

Similarly, `CC(=O)Nc1ccc(-c2cc(-c3ccc(NC(C)=O)cc3)c(O)c(=O)c(O)c2O)cc1` ? 3.05

Similarly, `O=c1c(O)cccc(O)c1O` ? 4.70

Similarly, CC(C)c1ccc(O)c(=O)c(O)c1 [BETA-THUJAPLICINOL] ? 6.70

Please examine the following record next.
Any idea what pIC50 was measured for `O=Cc1ccc(-c2ccc(O)c(=O)c(O)c2O)cc1` ? 4.92

---

- Test system: MRC5
- ASSAY_OVERVIEW: Cytotoxicity against human MRC5 cells
- Format: functional, cell-based
QUANTITY_MEASURED: pIC50
// pIC50: -log10(molar conc.)

Any idea what pIC50 was measured for C[C@H]1[C@H](OC(=O)CCC(=O)O)O[C@@H]2O[C@@]3(C)CC[C@H]4[C@H](C)CC[C@@H]1[C@@]24OO3 [ARTESUNATE] ? 4.44

Similarly, `O=C(O)c1cc(O)c(O)c(=O)c(O)c1` ? 3.44

Please examine the following record next.
Any idea what pIC50 was measured for `O=c1c(O)ccccc1O` ? 5.77

---

- System: B16
- ASSAY_OVERVIEW: Cytotoxicity against mouse B16 cells
- Format: functional, cell-based
QUANTITY_MEASURED: pIC50
// pIC50: -log10(molar conc.)

Some entries whose results are on file:
// fetch B16 pIC50 for `O=c1c(O)cccc(O)c1O` 6.59

Similarly, `O=c1c(O)ccccc1O` ? 5.66

Similarly, `O=c1c(O)ccc(O)cc1O` ? 5.60

***
// fetch B16 pIC50 for `O=c1ccc(O)ccc1O` 4.89

---

- ASSAY_OVERVIEW: Inhibition of HIV integrase 3' processing activity
- Set-up: species or system Human immunodeficiency virus
Entries and their IC50 values follow.
Answer format: numeric, µM implied, no suffix.

Some entries whose results are on file:
Any idea what IC50 was measured for `O=c1c(O)cccc(O)c1O` ? 40

Similarly, `O=Cc1ccc(-c2ccc(O)c(=O)c(O)c2O)cc1` ? 0.6

Similarly, `CC(=O)Nc1ccc(-c2cc(-c3ccc(NC(C)=O)cc3)c(O)c(=O)c(O)c2O)cc1` ? 0.15

Please examine the following record next.
Any idea what IC50 was measured for `O=c1c(O)c(O)ccc(-c2cccc([N+](=O)[O-])c2)c1O` ? 0.7

---

Entries and their pIC50 values follow.
- ASSAY_OVERVIEW: Inhibition of inositol monophosphatase (unknown origin)
- Parameters: species or system Homo sapiens
// pIC50: -log10(molar conc.)

Some entries whose results are on file:
Any idea what pIC50 was measured for `O=c1c(O)cccc(O)c1O` ? 5.10

Similarly, `O=C(O)c1cc(O)c(O)c(=O)c(O)c1` ? 5.00

Similarly, `O=c1c(O)ccccc1O` ? 4.12

Please examine the following record next.
Any idea what pIC50 was measured for `N#Cc1ccc(-c2ccc(O)c(=O)c(O)c2O)cc1` ? 5.40
